# credit: patent US20220135687A1

The entries below come with measured IC50 values attached.
measuredOn: T1, human PD-L1 expressed on CHO-K1 cells (Genscript, Cat #M00543) (human, UniProt Q9NZQ7 19-290)
T1 construct: also called PD-L1 cell line
assayNotes: FACS competition vs biotin-PD-1-Fc on CHO-K1/human PD-L1 cells
Write the answer as a number in nM, unit excluded.

As a guide, the following entries are already answered.
{"binder": "53C1_VH3-VL1.M1 (antibody, human IgG1, kappa, N297A, V domains shown, Humanized, hIgG1 effector-less Fc, kappa; see recheck on K24R in the .M1 light chain) VH: EVQLVQSGAEVKKPGASVKLSCKASGYIFTGYGITWVRQAPGQGLEWIGEIFPRRVNTYYSEKFKGRATLTADTSTSTAYMELRSLRSDDTAVYFCARDYDPYFALDYWGQGTTVTVSS VL: DIQMTQSPSSLSASVGDRVTITCRASQDVSTAVDWYQQKPGKAPKLLIYSASYRYTGVPDRFSGSGSGTDFTFTISSLQPEDIATYYCQQHYSIPFTFGQGTKLEIKR", "uom": "nM", "IC50": 0.482}
{"binder": "51F3D2G4 (antibody, V domains shown, Mouse mAb from hybridoma culture) VH: QVQLQQSGAELARPGASVRLSCKASGYIFTGYGISWVKQRTGQGLEWIGEIFPRTANTYFNEKFKGKATLTADKSSSTAYMELRSLTSEDSAVYFCARDYDPYYALDYWGQGTSVTVSS VL: DIVMTQSHKFMSTSVGDRVTITCKASQDVSTAVDWYQQKPGQSPKLLIYSASYRYTGVPDRFTGSGSGTAFTFTISSEQAEDLAVYYCQQHYSVPFTFGGGTKLEIK", "uom": "nM", "IC50": 1.23}
{"binder": "30A7B5D9 (antibody, V domains shown, Mouse mAb from hybridoma culture) VH: KVQLQQSGAELVKPGTSVKLSCKASGYTFTEYIIYWIKQRSGQGLEWIGWFYPGTGSIKYNEKFKDKATLTADKSSSTVFMELSRLTSEDSAVYFCARHEEGNLWFAYWGQGTLVTVSA VL: QIVLTQSPALMSASPGERVTMTCSASSDVSYMYWYQQKPRSSPKPWIYLTSNLASGVPARFSGSGSGTSYSLTISSMEAEDAATYYCQQWTGNPLTFGAGTKLELK", "uom": "nM", "IC50": 4.43}

Consider the additional binder presented here.
Prompt line: Annotate the binder 27D3D3G2 (antibody, V domains shown, Mouse mAb from hybridoma culture) VH: QVLLQQSGPELVKPGASVRISCKASGYTFTSYYMHWVKQRPGQGLEWIGWIYPGNVNTKYNEKFKGKATLTADKSSSTAYMQLSSLTSEDSAVYFCASYGNYGGWYFDVWGAGTTVTVSS VL: DIQMTQTTSSLSASLGDRVTISCRASQDIGNYLNWYQQKPDGTVKLLIYYTSRLHSGVPSRFSGSGSGTDYSLTISNLEQEDIATYFCQQGDTFPWTFGGGTKLEIK with its measured IC50.
Response line: 1.28
